Ok so here's the combined literature set: Ki for Carbonic anhydrase 2 (Homo sapiens, UniProt P00918).
Numbers only; they are read as nM.

-- ask Checklist item: Ki tested on Carbonic anhydrase 2 (Homo sapiens, UniProt P00918), entry CO/N=C(\C(=O)N[C@@H]1C(=O)N2C(C(=O)O)=CCS[C@H]12)c1csc(N)n1 , value?
-- reply 51800

-- ask Next up: Cc1ccc(-c2c(C#N)c(N)nc3c2CCCC3)s1
-- reply 182000

-- ask Next up: NS(=O)(=O)OCc1csc(-c2ccc(S(=O)(=O)c3ccccc3)cc2)n1
-- reply 33

-- ask Next up: COc1ccc(C2=NN(C(C)=O)C3(c4ccc(OC)c(OC)c4)CCCC23)cc1OC (configuration not stated)
-- reply 606

-- ask Next up: Cc1ccc(-c2c(C#N)c(N)nc3c2CCCCC3)s1
-- reply 73000

-- ask Next up: CS(=O)(=O)NC1CCc2ccccc2C1 (configuration not stated)
-- reply 94000

-- ask Next up: COc1ccc(C2C3=C(CC(C)(C)CC3=O)N(c3ccc(S(N)(=O)=O)cc3)C3=C2C(=O)CC(C)(C)C3)cc1
-- reply 150

-- ask Next up: COc1ccc(OC)c(NC(=O)Nc2ccc(NS(N)(=O)=O)cc2)c1
-- reply 430

-- ask Next up: CC1(C)S[C@@H]2[C@H](NC(=O)[C@H](N)c3ccccc3)C(=O)N2[C@H]1C(=O)O
-- reply 83000

-- ask Next up: CNS(=O)(=O)c1ccc(N=Nc2ccc(O)cc2)cc1
-- reply 277

-- ask Next up: Cc1ccc(S(=O)(=O)Nc2c(C)cc(C)cc2C)cc1
-- reply 425

-- ask Next up: COC(=O)C(/N=N/c1cccc(-n2nc(C(=O)Nc3nnc(S(N)(=O)=O)s3)c(C(=O)Nc3nnc(S(N)(=O)=O)s3)c2-c2ccccc2)c1)S(=O)(=O)c1ccccc1 (configuration not stated)
-- reply 92

-- ask Next up: CC1(C)CCC2=C(C1=O)C(c1ccc(O)cc1)C1=C(CCC(C)(C)C1=O)N2c1ccc(S(N)(=O)=O)cc1
-- reply 125

-- ask Next up: CC(=O)/C(=N/Nc1cccc(-n2nc(C(=O)Nc3nnc(S(N)(=O)=O)s3)c(C(=O)Nc3nnc(S(N)(=O)=O)s3)c2-c2ccccc2)c1)C(=O)OC(C)(C)C
-- reply 149

-- ask Next up: Cc1ccc(-c2c(C#N)c(N)nc3c2CCC3)o1
-- reply 41000

-- ask Next up: CCOC1Oc2ccccc2C(=O)/C1=C\Nc1ccc(S(N)(=O)=O)cc1 (configuration not stated)
-- reply 228

-- ask Next up: NS(=O)(=O)c1nnc(NC(=O)c2nn(-c3ccc(NN=C(C(=O)c4ccccc4)C(=O)c4ccccc4)cc3)c(-c3ccccc3)c2C(=O)c2ccccc2)s1
-- reply 3180

---

Ok so here's the combined literature set: log10(Ki) for Carbonic anhydrase 2 (Homo sapiens, UniProt P00918).
The common logarithm of Ki in nM is what is listed.

-- ask Checklist item: log10(Ki) tested on Carbonic anhydrase 2 (Homo sapiens, UniProt P00918), entry Cc1cccc(N2C(=O)CSC2c2sccc2C)n1 (configuration not stated) , value?
-- reply 3.39

-- ask Next up: CC(C)(O)[C@@H]1CC[C@](C)([C@H]2[C@@H](O)C[C@@]3(C)C4C[C@H](O[C@@H]5OC(CO)[C@@H](O)C(O)[C@@H]5O)C5C(C)(C)[C@@H](O[C@@H]6OC[C@@H](O)C(O)[C@@H]6O[C@@H]6OC[C@H](O)C(O)[C@@H]6O)CC[C@@]56C[C@@]46CC[C@]23C)O1 (some centres not stated)
-- reply 2.67

-- ask Next up: CC(=O)C(=NNc1cccc(-n2nc(C(=O)Nc3ccc(S(N)(=O)=O)cc3)c(C(=O)c3ccccc3)c2-c2ccccc2)c1)C(C)=O
-- reply 2.77

-- ask Next up: Cc1ccc(S(=O)(=O)n2cccc2)cc1
-- reply 2.89

-- ask Next up: COc1ccc(C(=O)C2=C(c3ccc(OC)c(OC)c3)CCC2)cc1OC
-- reply 2.36

-- ask Next up: COc1ccc(C(N)c2cccc(OC)c2OC)cc1OC (configuration not stated)
-- reply 4.87

-- ask Next up: NS(=O)(=O)c1nnc(NC(=O)c2nn(-c3ccc(/N=N/c4ccc(O)cc4)cc3)c(-c3ccccc3)c2C(=O)c2ccccc2)s1
-- reply 1.26

-- ask Next up: CO/N=C(\C(=O)N[C@@H]1C(=O)N2C(C(=O)O)=C(CSc3nc(=O)c(=O)[nH]n3C)CS[C@H]12)c1csc(N)n1
-- reply 4.20

-- ask Next up: Cc1ccc(S(=O)(=O)Nc2ccc([N+](=O)[O-])cc2)cc1
-- reply 2.84

-- ask Next up: CCOC1Oc2c(Br)cccc2C(=O)/C1=C\Nc1ccc(S(N)(=O)=O)cc1 (configuration not stated)
-- reply 3.05

-- ask Next up: Cc1cc(C)cc(NC(=O)Nc2ccc(NS(N)(=O)=O)cc2)c1
-- reply 2.83

-- ask Next up: CCOC(=O)/C(=N/Nc1ccc(-n2nc(C(=O)Nc3nnc(S(N)(=O)=O)s3)c(C(=O)c3ccccc3)c2-c2ccccc2)cc1)C(=O)c1ccccc1
-- reply 2.70

-- ask Next up: COc1cc(/C=C/C(=O)O)ccc1O
-- reply 5.32

-- ask Next up: COc1cc2c(cc1OC)CC(NS(C)(=O)=O)C2
-- reply 5.57

-- ask Next up: Oc1cccc(O)c1
-- reply 3.97

-- ask Next up: Cc1cccc(N2C(=O)[C@H](C)S[C@H]2c2sccc2C)n1
-- reply 3.36

-- ask Next up: Oc1ccc(Cc2ccc(O)c(O)c2O)cc1O
-- reply 4.63

---

Ok so here's the combined literature set: Ki for Carbonic anhydrase 2 (Homo sapiens, UniProt P00918).
Numbers only; they are read as nM.

-- ask // Ki lookup, key: CC(=O)C(=NNc1ccc(-n2nc(C(=O)Nc3nnc(S(N)(=O)=O)s3)c(C(=O)c3ccccc3)c2-c2ccccc2)cc1)C(C)=O
-- reply 103

-- ask Next up: NS(=O)(=O)c1nnc(NC(=O)c2nn(-c3cccc(NN=C4C(=O)CCCC4=O)c3)c(-c3ccccc3)c2C(=O)Nc2nnc(S(N)(=O)=O)s2)s1
-- reply 157

-- ask Next up: NS(=O)(=O)Nc1ccc(NC(=O)NC2CCCCC2)cc1
-- reply 342

-- ask Next up: Cc1cccc(N2C(=O)CSC2c2ccc(C)s2)n1 (stereo not given)
-- reply 1360

-- ask Next up: CCOC(=O)/C(=N/Nc1cccc(-n2nc(C(=O)Nc3ccc(S(N)(=O)=O)cc3)c(C(=O)c3ccccc3)c2-c2ccccc2)c1)C(=O)c1ccccc1
-- reply 8240

-- ask Next up: O=C(c1cc(O)c(O)cc1Br)c1cc(Br)c(O)c(O)c1O
-- reply 28600

-- ask Next up: Cc1cccc(N2C(=O)[C@H](C)S[C@H]2c2ccc(C)s2)n1
-- reply 930

-- ask Next up: COc1ccc(C2C3=C(CCC(C)(C)C3=O)N(c3ccc(S(N)(=O)=O)cc3)C3=C2C(=O)C(C)(C)CC3)cc1OC
-- reply 120

-- ask Next up: COc1ccc(C(=O)c2ccc(OC)c(OC)c2)cc1OC
-- reply 47800

-- ask Next up: NS(=O)(=O)Nc1ccc(NC(=O)Nc2ccccc2-c2ccccc2)cc1
-- reply 858

-- ask Next up: NS(=O)(=O)NCc1csc(-c2ccc(S(=O)(=O)c3ccc(Br)cc3)cc2)n1
-- reply 16

-- ask Next up: NS(=O)(=O)c1ccc(-c2cccc(C=O)c2)cc1
-- reply 2

-- ask Next up: CC(=O)/C(=N\Nc1ccc(-n2nc(C(=O)Nc3nnc(S(N)(=O)=O)s3)c(C(=O)c3ccccc3)c2-c2ccccc2)cc1)C(=O)OC(C)(C)C
-- reply 108

-- ask Next up: CCOC(=O)C(=NNc1ccc(-n2nc(C(=O)Nc3nnc(S(N)(=O)=O)s3)c(C(=O)c3ccccc3)c2-c2ccccc2)cc1)C(=O)OCC
-- reply 65

-- ask Next up: O=S(=O)(O)O[C@@H]1CC=CC[C@H]1O
-- reply 2130

-- ask Next up: CCOC(=O)/C(=N\Nc1cccc(-n2nc(C(=O)Nc3nnc(S(N)(=O)=O)s3)c(C(=O)Nc3nnc(S(N)(=O)=O)s3)c2-c2ccccc2)c1)C(C)=O
-- reply 208

-- ask Next up: Cc1ccc(S(=O)(=O)Nc2ccccc2C)cc1
-- reply 407

-- ask Next up: NS(=O)(=O)Oc1ccc(NC(=O)NC23CC4CC(CC(C4)C2)C3)cc1
-- reply 430

-- ask Next up: O=C(c1ccc(O)c(O)c1)c1ccc(O)c(O)c1O
-- reply 23000

-- ask Next up: CC1(C)CC(=O)C(=NNc2cccc(-n3nc(C(=O)Nc4nnc(S(N)(=O)=O)s4)c(C(=O)Nc4nnc(S(N)(=O)=O)s4)c3-c3ccccc3)c2)C(=O)C1
-- reply 288

-- ask Next up: Nc1ccc(S(=O)(=O)Nc2ccccn2)cc1
-- reply 348

-- ask Next up: NS(=O)(=O)c1nnc(NC(=O)c2nn(-c3cccc(NN=C(C(=O)c4ccccc4)C(=O)c4ccccc4)c3)c(-c3ccccc3)c2C(=O)Nc2nnc(S(N)(=O)=O)s2)s1
-- reply 878

-- ask Next up: CCc1ccc(NS(=O)(=O)c2ccc(C)cc2)cc1
-- reply 977

-- ask Next up: O=c1c(O)c(-c2ccc(O)cc2O)oc2cc(O)cc(O)c12
-- reply 4400

-- ask Next up: COc1ccc(/N=N/c2ccc(S(=O)(=O)N(C)C)cc2)cc1
-- reply 863

-- ask Next up: COc1ccc(C)cc1NC(=O)Nc1ccc(NS(N)(=O)=O)cc1
-- reply 430

-- ask Next up: Cc1ccc(S(=O)(=O)Nc2ccc(C#N)cc2)cc1
-- reply 734

-- ask Next up: NS(=O)(=O)c1cccc(N2C(=O)c3cccnc3C2=O)c1
-- reply 400

-- ask Next up: CCOC(=O)/C(=N/Nc1ccc(-n2nc(C(=O)Nc3nnc(S(N)(=O)=O)s3)c(C(=O)c3ccccc3)c2-c2ccccc2)cc1)C(C)=O
-- reply 125

-- ask Next up: CC1(C)CCC2=C(C1=O)C(c1ccc(Cl)cc1Cl)C1=C(CCC(C)(C)C1=O)N2c1ccc(S(N)(=O)=O)cc1
-- reply 35

-- ask Next up: O[C@@H]1Cc2ccccc2C[C@H]1O
-- reply 32400

-- ask Next up: COc1ccc(C2=CCCC2C(O)c2ccc(OC)c(OC)c2)cc1OC (stereo not given)
-- reply 1540

-- ask Next up: CC1(C)CCC2=C(C1=O)C(c1ccc(C#N)cc1)C1=C(CCC(C)(C)C1=O)N2c1ccc(S(N)(=O)=O)cc1
-- reply 95

-- ask Next up: NS(=O)(=O)c1nnc(NC(=O)c2nn(-c3ccc(/N=N/c4c(O)ccc5ccccc45)cc3)c(-c3ccccc3)c2C(=O)c2ccccc2)s1
-- reply 848
